Biological target: human alpha-2A adrenergic receptors (Homo sapiens)
Construct: host or cells: membrane preparations
Sequence (P08913 1-465): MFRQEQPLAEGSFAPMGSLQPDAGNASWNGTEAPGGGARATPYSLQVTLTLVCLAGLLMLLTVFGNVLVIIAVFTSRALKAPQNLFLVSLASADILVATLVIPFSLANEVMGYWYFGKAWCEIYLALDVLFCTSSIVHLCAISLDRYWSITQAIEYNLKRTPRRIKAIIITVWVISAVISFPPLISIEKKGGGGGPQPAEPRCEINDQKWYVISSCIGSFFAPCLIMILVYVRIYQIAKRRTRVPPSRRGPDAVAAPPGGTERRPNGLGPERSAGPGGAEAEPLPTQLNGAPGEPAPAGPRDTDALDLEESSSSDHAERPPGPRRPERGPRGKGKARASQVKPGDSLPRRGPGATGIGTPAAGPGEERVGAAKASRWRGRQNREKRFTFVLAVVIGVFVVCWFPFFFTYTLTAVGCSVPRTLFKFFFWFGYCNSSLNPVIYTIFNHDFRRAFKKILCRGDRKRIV
Assay: Measurement of the activation of the adrenergic alpha-2 receptors (GTPγS response on membrane preparations)
Format: biochemical
Details: GTPγS response versus maximum stimulation by (−)-adrenalin, negative = inverse agonist, read-out: Intrinsic activity % stimulated
Method: Measurement of the Activation of the Adrenergic Alpha-2 Receptors: The responses as GTPγS are performed on membrane preparations in 20 mM HEPES (pH=7.4) with 30 μM of GDP, 100 mM of NaCl, 3 mM of MgCl2 and 0.2 mM of ascorbic acid. The maximum stimulation of the GTPγS is determined in the presence of […] of (−)-adrenalin and calculated versus the basal GTPγS response. The results are expressed versus either adrenalin or RX 81105-9. […]
Listing of entries alongside the reported Emax.
The figure you give is taken to be in %; do not add the unit.

Previously resolved entries follow.
C[C@@H]1[C@H]2c3ccccc3C[C@@]12C1=NCCN1 (racemic) : -64
CNCC(O)c1ccc(O)c(O)c1 (single isomer, unassigned; (-)) [(−)-adrenalin, reference compound] : 100
COC1c2ccccc2C2CC21C1=NCCN1 (single isomer, unassigned; (+)) [(+) -XV-1] : -63

// next item, Emax requested
Q. Give Emax for CO[C@H]1c2ccccc2C2C[C@]21C1=NCCN1 (mixture of isomers)
A. -2
